Biological target: T1, mouse IL-2Rα (mouse, UniProt P01590 22-236, limits assumed)
T1 construct: recombinant protein; also called mo IL-2R; mouse IL-2Ra
T1 sequence (looked up): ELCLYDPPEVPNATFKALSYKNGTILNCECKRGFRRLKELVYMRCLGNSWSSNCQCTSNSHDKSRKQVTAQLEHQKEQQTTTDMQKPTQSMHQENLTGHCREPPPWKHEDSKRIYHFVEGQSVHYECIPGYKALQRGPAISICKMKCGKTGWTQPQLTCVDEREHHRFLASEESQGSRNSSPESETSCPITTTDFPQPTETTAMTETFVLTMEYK
Assay: SPR, P.E. on immobilised antigen
Protocol: SPR was performed to determine dissociation rates using Biacore 3000 instrument (GE Healthcare). Briefly, human and mouse IL-2R proteins were immobilized on carboxylmethyl dextran sensor chip (CM5) at approximately 2500 RUs using amine coupling in acetate buffer (GE Healthcare). The VHH-containing P.E. were loaded with a flow rate of 30 uL/min and the off-rates were measured over a 120s period.

BINDER | koff, s⁻¹
FJ1427_P035MP05C11 (VHH, periplasmic extract; also called clone nr) VHH: QVQLVESGGGLVQAGGSLRLSCTASGLTFEGYAIGWFRQAPGKEREGVSYITGSDASTYYIDSVKGRFTISSDFAKSTVYLQMNNLKPEDTAVYYCAVDRLGSRGGYASSWWRSGDMDLWGKGTLVTVSS | 0.000844
FJ1427_P035MP05C09 (VHH, periplasmic extract; also called clone nr) VHH: QLQLVESGGGLVQAGGSLRLSCAASGFTFDGYAIGWFRQAPGKEREGVSYITGSDGSTYYADSVKGRFTISSNNAKNTVYLHMNSLKPDDAAVYYCAIDRLGSRGAYVPIWWRSSDMDLWGKGTLVTVSS | 0.00435
FJ1427_P035MP05E04 (VHH, periplasmic extract; also called clone nr) VHH: QVQLVESGGGLVQAGGSLRLSCAASGGTFRTRNMGWFRRAPGKEREFVAAVSWSVDNKLYAGSVKGRFTISRDNGRNMVYLQMNSLKPEDTAVYYCAADNIPLSSDMRPTATEFGYWGQGTRVTVSS | 0.196
9-MP05G01 (VHH, periplasmic extract; also called FJ1427_P035MP05G01) VHH: EVQLVESGGGLVQAGGSLRLSCAASGGSIYTYNMGWFRQAPGKEREFVAGTLWSGGDSVYADFAKGRFTLSRENAKNTLYLQMNSLKPEDTATYYCAIDPLSLTSDWRVDELSSWGKGTLVTVSS | 0.0442
